What IC50 was measured for each of the following?
Test system: Plasmodium falciparum
Assay: Antimalarial activity against Plasmodium falciparum K1
Assay type: functional, organism-based
One number for each entry, in nM.

| Compound | Measured Parameter | Data Value |
| --- | --- | --- |
| CC(=O)N1CCN(c2ccc(CN(C(=O)/C=C/c3ccc(C(F)(F)F)cc3)[C@@H](Cc3ccccc3)C(=O)N3CCN(Cc4ccc(N(C)CCO)cc4)CC3)cc2)CC1 | IC50 | 0.46 |
| FC1CCN(CCOc2ccc(C3CCC4(CC3)OOC3(OO4)C4CC5CC(C4)CC3C5)cc2)CC1 (stereo not drawn) | IC50 | 4.2 |
| Nc1ncc(-c2ccc(C(=O)N3CCNCC3)cc2)nc1-c1ccc(C(F)(F)F)cc1 | IC50 | 4.7 |
| Cc1nc(Nc2ncc(N3CCN(C)[C@H](C)C3)c(Nc3cc(C)n(C)n3)n2)cc(C2CC2)c1F | IC50 | 15 |
| CC(C)(C)c1cc(O)c(CN)c(C(C)(C)C)c1 | IC50 | 9.6 |
| c1cc([C@H]2CC[C@]3(CC2)OO[C@]2(O3)C3CC4CC(C3)CC2C4)ccc1OCCN1CCOCC1 | IC50 | 3.8 |
| Cc1cc(Nc2ccc(S(F)(F)(F)(F)F)cc2)n2nc(C(C)(F)F)nc2n1 | IC50 | 2.6 |

Switching to the query record.
Problem: Which IC50 reading was recorded for the compound `CC(=O)N1CCN(c2ccc(CN(C(=O)/C=C/c3ccc(C(C)(C)C)cc3)[C@@H](Cc3ccccc3)C(=O)N3CCN(Cc4ccc(C#N)cc4)CC3)cc2)CC1` ?
Solution: 0.3

----------
What IC50 was measured for each of the following?
Assay: Inhibition of Plasmodium vivax PI4K
Give bare numbers, in nM.

| Smiles Text | Measured Parameter | Units Label | Data Value |
| --- | --- | --- | --- |
| CS(=O)(=O)c1ccc(-c2cnc(N)c(-c3ccc(C(F)(F)F)nc3)c2)cc1 | IC50 | nM | 3.4 |

Problem: Which IC50 reading was recorded for the compound `Nc1ncc(-c2ccc(C(=O)N3CCNCC3)cc2)nc1-c1ccc(C(F)(F)F)cc1` ?
Solution: 23

----------
Assay: Inhibition of Plasmodium flaciparum 3D7_2 membrane recombinant ATP4 expressed in Escherichia coli BL21 (DE3) cells
Design: species or system Plasmodium falciparum
Measured Parameter: IC50 (nM)
Numbers only, in nM.

Problem: Which IC50 reading was recorded for the compound `CCC(CC)Nc1nc(C)c(C#N)c2ccccc12` ?
Solution: 70

----------
System: Plasmodium falciparum
Test: Antimalarial activity against multidrug resistant Plasmodium falciparum Dd2 incubated for 72 hrs by malaria SYBR green I nucleic acid staining dye based fluorescence assay
Format: functional, organism-based
Details: Dd2, 72 h
What EC50 was measured for each of the following?
// unit must come after the numeric part

| Compound | EC50 |
| --- | --- |
| CCN(CC)CCCC(C)Nc1ccnc2cc(Cl)ccc12 (configuration not stated) [CHLOROQUINE] | 165 nM |

Switching to the query record.
Problem: Which EC50 reading was recorded for the compound C[C@@H]1CCC2[C@@H](C)[C@H](OC(=O)CCC(=O)NCCNc3ccnc4cc(Cl)ccc34)O[C@@H]3O[C@]4(C)CC[C@@H]1[C@@]23OO4 (some centres not stated) ?
Solution: 1 nM

----------
Experiment: Cytotoxicity against African green monkey Vero cells
Type: toxicity, cell-based, Chlorocebus sabaeus
Measured Parameter: IC50

Problem: Which IC50 reading was recorded for the compound `c1cc(N2CCOCC2)nc(NCCNc2nc(N3CCOCC3)nc(N3CCOCC3)n2)n1` ?
Solution: > 10.1 µM
